- testMethodNotes: in vivo
- conditionDescription: mouse, ip, LD50, Table II, I.P.
measuredQuantity: LD50 at 72 h (mg/kg)
Response body: numeric value in mg/kg, unit text excluded.

For the molecule shown here, CCCCn1nc(-c2ccccc2)c(CC(=O)O)c1-c1ccccc1 [K] , give the reported LD50 at 72 h.
430

Next record, please: Cc1nn(-c2ccccc2)c(C)c1CC(N)=O [P]
500

Similarly, O=C(O)Cc1c(-c2ccco2)nn(-c2ccccc2)c1-c1ccco1 [B] ?
373

Also check O=C(O)Cc1cnn(-c2ccccc2)c1-c1ccc(Cl)cc1 [I]
279

Then this molecule: COc1cccc(-c2nn(-c3ccccc3)c(-c3cccc(OC)c3)c2CC(=O)O)c1 [N]
312

Please do the same for O=C(O)Cc1c(-c2ccc(Cl)cc2)nn(-c2ccccc2)c1-c1ccc(Cl)cc1 [M] as well.
51
